Parameter IC50: see the listing below.
Biological target: human ROR1 (Homo sapiens)
Construct: host or cells: HEK 293T cells, Tet-on system induced with doxycycline
Experiment: ROR1 high content cell-based binding assay
Conditions: read-out: ROR1 Binding 293T Human HC Cell Based Assay IC50
Positions of bridges follow the written chain, without caps; N, C: chain ends. Non-standard residues stand in square brackets, D forms with d. Residues, ends and D or L forms follow the SMILES beside them. NMeF = CN[C@@H](Cc1ccccc1)C(=O)O

[
  {
    "compound": "CC(C)C[C@@H]1NC(=O)[C@H](Cc2ccc(O)cc2)NC(=O)[C@H](Cc2ccccc2)NC(=O)CSC[C@@H](C(=O)NCC(N)=O)NC(=O)[C@H](CC(C)C)NC(=O)[C@H](Cc2ccccc2)N(C)C(=O)[C@H](Cc2ccc(O)cc2)NC(=O)[C@H](Cc2c[nH]c3ccccc23)NC(=O)CNC(=O)[C@H](CO)NC(=O)[C@@H](C)NC(=O)[C@H](C(C)C)NC1=O [Example 1060] ({CH2CO}-FYLV[dA]SGWY[NMeF]LCG-NH2; thioether N-12)",
    "IC50 (nM)": 30
  },
  {
    "compound": "CC(C)C[C@@H]1NC(=O)[C@H](Cc2ccc(O)cc2)NC(=O)[C@H](Cc2ccccc2)NC(=O)CSC[C@@H](C(=O)NCC(N)=O)NC(=O)[C@H](CC(C)C)NC(=O)[C@H](Cc2ccccc2)N(C)C(=O)[C@H](Cc2ccc(O)cc2)NC(=O)[C@H](Cc2c[nH]c3ccccc23)NC(=O)CNC(=O)[C@H](CO)NC(=O)[C@H](CCCNC(=N)N)NC(=O)[C@H](C(C)C)NC1=O [Example 1023] ({CH2CO}-FYLVRSGWY[NMeF]LCG-NH2; thioether N-12)",
    "IC50 (nM)": 79
  }
]

---

Biological target: human ROR1 (Homo sapiens, UniProt Q01973)
Construct: host or cells: HEK 293T cells, Tet-on system induced with doxycycline
Sequence (Q01973 30-937): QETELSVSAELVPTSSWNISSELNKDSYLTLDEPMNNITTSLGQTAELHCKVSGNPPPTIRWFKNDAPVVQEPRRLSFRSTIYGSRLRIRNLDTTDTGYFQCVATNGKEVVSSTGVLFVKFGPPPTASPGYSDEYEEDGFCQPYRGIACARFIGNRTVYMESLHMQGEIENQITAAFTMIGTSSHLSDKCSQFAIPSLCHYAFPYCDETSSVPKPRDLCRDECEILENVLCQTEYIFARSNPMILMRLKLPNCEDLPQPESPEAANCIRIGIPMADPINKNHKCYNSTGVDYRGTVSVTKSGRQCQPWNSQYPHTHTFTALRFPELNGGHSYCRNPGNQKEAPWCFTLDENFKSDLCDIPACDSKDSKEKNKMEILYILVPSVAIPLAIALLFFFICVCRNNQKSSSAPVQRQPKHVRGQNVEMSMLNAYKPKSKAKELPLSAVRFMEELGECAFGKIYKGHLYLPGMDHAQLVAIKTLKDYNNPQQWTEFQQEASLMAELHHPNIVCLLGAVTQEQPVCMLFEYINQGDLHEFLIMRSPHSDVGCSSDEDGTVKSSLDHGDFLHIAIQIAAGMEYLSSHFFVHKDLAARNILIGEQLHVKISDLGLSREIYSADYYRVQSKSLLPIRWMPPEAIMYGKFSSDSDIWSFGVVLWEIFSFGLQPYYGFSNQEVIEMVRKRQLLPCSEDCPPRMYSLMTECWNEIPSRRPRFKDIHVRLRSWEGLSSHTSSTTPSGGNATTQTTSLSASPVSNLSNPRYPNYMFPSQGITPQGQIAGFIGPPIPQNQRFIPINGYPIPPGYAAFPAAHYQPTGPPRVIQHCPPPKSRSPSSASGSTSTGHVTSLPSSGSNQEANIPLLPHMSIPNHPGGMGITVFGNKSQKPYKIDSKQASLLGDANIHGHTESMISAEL
Assay: ROR1 high content cell-based binding assay
Details: read-out: ROR1 Binding 293T Human HC Cell Based Assay IC50
Positions of bridges follow the written chain, without caps; N, C: chain ends. Non-standard residues stand in square brackets, D forms with d. Residues, ends and D or L forms follow the SMILES beside them. ξ: configuration not given here. 2Nal = N[C@@H](Cc1ccc2ccccc2c1)C(=O)O; NMeF = CN[C@@H](Cc1ccccc1)C(=O)O; PEG5 = NCCOCCOCCOCCOCCOCCC(=O)O; Ile(3ξ) = CCC(C)[C@H](N)C(=O)O; Thr(3ξ) = CC(O)[C@H](N)C(=O)O; NMeNle = CCCC[C@H](NC)C(=O)O; ξY = NC(Cc1ccc(O)cc1)C(=O)O; NMeA = CN[C@@H](C)C(=O)O; ξF = NC(Cc1ccccc1)C(=O)O; AEEA = NCCOCCOCC(=O)O; Sar = CNCC(=O)O
Label 1.0 when IC50 is strictly below 70 nM; at or above that, label 0.0.

[
  {
    "molecule": "CN1C(=O)CNC(=O)[C@H](Cc2ccc(O)cc2)NC(=O)[C@H](Cc2ccccc2)NC(=O)CSC[C@@H](C(N)=O)NC(=O)[C@H](Cc2c[nH]c3ccccc23)NC(=O)[C@H](Cc2ccc(O)cc2)NC(=O)[C@H](Cc2ccccc2)NC(=O)[C@H](CC(N)=O)NC(=O)[C@@H]1Cc1ccccc1 [Example 1103] ({CH2CO}-FYG[NMeF]NFYWC-NH2; thioether N-9)",
    "label": 0.0
  },
  {
    "molecule": "CC(C)C[C@@H]1NC(=O)[C@H](Cc2ccc(O)cc2)NC(=O)[C@H](Cc2ccccc2)NC(=O)CSC[C@@H](C(=O)NCC(N)=O)NC(=O)[C@H](CC(C)C)NC(=O)[C@H](Cc2ccccc2)N(C)C(=O)[C@H](Cc2ccc(O)cc2)NC(=O)[C@H](Cc2c[nH]c3ccccc23)NC(=O)CNC(=O)CNC(=O)[C@H](Cc2ccc(O)cc2)NC(=O)[C@H](C(C)C)NC1=O [Example 1022] ({CH2CO}-FYLVYGGWY[NMeF]LCG-NH2; thioether N-12)",
    "label": 1.0
  },
  {
    "molecule": "CCCC[C@H]1C(=O)N[C@@H](CC(C)C)C(=O)N[C@H](C(=O)NCCOCCOCC(=O)N[C@@H](CCCCN)C(N)=O)CSCC(=O)N[C@@H](Cc2ccccc2)C(=O)N[C@@H](Cc2ccc(O)cc2)C(=O)N[C@@H](Cc2c[nH]c3ccccc23)C(=O)N[C@@H](CO)C(=O)N[C@@H](CO)C(=O)N[C@@H](CCCNC(=N)N)C(=O)N(C)[C@@H](C)C(=O)N[C@@H](Cc2c[nH]c3ccccc23)C(=O)N[C@@H](Cc2ccc(O)cc2)C(=O)N1C [Example 1079] ({CH2CO}-FYWSSR[NMeA]WY[NMeNle]LC[AEEA]K-NH2; thioether N-12)",
    "label": 1.0
  },
  {
    "molecule": "CC(C)C[C@@H]1NC(=O)[C@H](Cc2ccc(O)cc2)NC(=O)[C@H](Cc2ccccc2)NC(=O)CSC[C@@H](C(=O)NCCOCCOCCOCCOCCOCCC(=O)N[C@@H](CCCCN)C(N)=O)NC(=O)[C@H](CC(C)C)NC(=O)[C@H](Cc2ccccc2)N(C)C(=O)[C@H](Cc2ccc(O)cc2)NC(=O)[C@H](Cc2c[nH]c3ccccc23)NC(=O)CNC(=O)[C@H](CO)NC(=O)[C@H](Cc2ccc(O)cc2)NC(=O)[C@H](C(C)C)NC1=O [Example 1083] ({CH2CO}-FYLVYSGWY[NMeF]LC[PEG5]K-NH2; thioether N-12)",
    "label": 1.0
  },
  {
    "molecule": "CC(C)C[C@@H]1NC(=O)[C@H](C(C)O)NC(=O)[C@H](Cc2ccccc2)N(C)C(=O)CNC(=O)[C@H](Cc2ccc(O)cc2)NC(=O)[C@H](Cc2ccccc2)NC(=O)CSC[C@@H](C(N)=O)NC(=O)[C@H](Cc2c[nH]c3ccccc23)NC(=O)[C@H](Cc2ccc(O)cc2)NC1=O (some centres unmarked) [Example 1114] ({CH2CO}-FYG[NMeF][Thr(3ξ)]LYWC-NH2; thioether N-9)",
    "label": 0.0
  },
  {
    "molecule": "CC(C)C[C@@H]1NC(=O)[C@H](Cc2c[nH]c3ccccc23)NC(=O)[C@H](C(C)C)NC(=O)CNC(=O)[C@H](CO)NC(=O)[C@H](Cc2ccccc2)N(C)C(=O)[C@H](Cc2ccc(O)cc2)NC(=O)[C@H](Cc2ccc(O)cc2)NC(=O)[C@@H](Cc2ccccc2)NC(=O)CSC[C@@H](C(=O)NCC(N)=O)NC(=O)[C@H](C(C)C)NC(=O)[C@H](Cc2ccc(O)cc2)NC1=O [Example 1000] ({CH2CO}-[dF]YY[NMeF]SGVWLYVCG-NH2; thioether N-12)",
    "label": 1.0
  },
  {
    "molecule": "CCC(C)[C@@H]1NC(=O)[C@H](Cc2c[nH]c3ccccc23)NC(=O)[C@H](Cc2ccccc2)NC(=O)[C@H](Cc2ccc(O)cc2)NC(=O)[C@@H](Cc2ccccc2)NC(=O)CSC[C@@H](C(N)=O)NC(=O)[C@H](C)NC(=O)[C@H](C(C)CC)NC(=O)[C@H](C(C)C)NC(=O)[C@H](Cc2c[nH]c3ccccc23)NC(=O)[C@H](CCCNC(=N)N)NC(=O)CNC1=O (some centres unmarked) [Example 1050] ({CH2CO}-[dF]YFW[Ile(3ξ)]GRWV[Ile(3ξ)]AC-NH2; thioether N-12)",
    "label": 1.0
  },
  {
    "molecule": "CC(C)C[C@@H]1NC(=O)[C@H](Cc2ccc(O)cc2)NC(=O)[C@H](Cc2ccc3ccccc3c2)NC(=O)CSC[C@@H](C(=O)NCC(N)=O)NC(=O)[C@H](CC(C)C)NC(=O)[C@H](Cc2ccccc2)N(C)C(=O)[C@H](Cc2ccc(O)cc2)NC(=O)[C@H](Cc2c[nH]c3ccccc23)NC(=O)CNC(=O)[C@H](CO)NC(=O)[C@H](Cc2ccc(O)cc2)NC(=O)[C@H](C(C)C)NC1=O [Example 1092] ({CH2CO}-[2Nal]YLVYSGWY[NMeF]LCG-NH2; thioether N-12)",
    "label": 1.0
  },
  {
    "molecule": "CC(C)C[C@@H]1NC(=O)[C@H](Cc2ccccc2)NC(=O)CSC[C@@H](C(N)=O)NC(=O)[C@H](C(C)C)NC(=O)[C@H](Cc2ccccc2)N(C)C(=O)[C@H](CC(C)C)NC(=O)[C@H](Cc2c[nH]c3ccccc23)NC(=O)CN(C)C(=O)CNC(=O)[C@H](C(C)C)NC(=O)[C@H](Cc2c[nH]c3ccccc23)NC1=O [Example 1203] ({CH2CO}-FLWVG[Sar]WL[NMeF]VC-NH2; thioether N-11)",
    "label": 0.0
  },
  {
    "molecule": "CC(C)C[C@@H]1NC(=O)[C@H](Cc2ccc(O)cc2)NC(=O)[C@H](Cc2ccccc2)N(C)C(=O)CNC(=O)[C@H](Cc2ccc(O)cc2)NC(=O)C(Cc2ccccc2)NC(=O)CSC[C@@H](C(=O)NCC(N)=O)NC(=O)[C@H](Cc2c[nH]c3ccccc23)NC(=O)C(Cc2ccc(O)cc2)NC1=O (some centres unmarked) [Example 1112] ({CH2CO}-[ξF]YG[NMeF]YL[ξY]WCG-NH2; thioether N-9)",
    "label": 0.0
  }
]
